- ASSAY_TARGET: purified recombinant human BTK protein (Homo sapiens (Human))
- ASSAY_PROCEDURE: Measurement of BTK inhibitory activity (in vitro)
- ASSAY_SETUP: FL-PEPTIDE 2 substrate 1 μM, ATP 45 μM, 40 minutes at 25° C.
ENDPOINT_LABEL: IC50 (nM)

[[record]]
structure = "Nc1ncnc2c1c(C(=O)Nc1nc3ccccc3o1)nn2[C@@H]1CCCN(C(=O)/C=C/CN2CCN(CCNC(=O)CCCC[C@@H]3SC[C@@H]4NC(=O)N[C@@H]43)CC2)C1"
endpoint_label = "IC50"
measure_unit = "nM"
numeric_readout = 43.9


a: C=CC(=O)N1CCC[C@@H](n2nc(C(=O)Nc3nc4cc(-c5cccs5)ccc4o3)c3c(N)ncnc32)C1
b: CN(C)C/C=C/C(=O)N1CCC[C@@H](n2nc(C(=O)Nc3nc4cc(Cl)ccc4o3)c3c(N)ncnc32)C1
c: Nc1ncnc2c1c(C(=O)Nc1nc3cc(Cl)ccc3o1)cn2[C@@H]1CCN(C(=O)/C=C/CN2CCCC2)C1
Sort low-to-high on IC50, please. Rank the items, then write their labels in that order. a, b, c
(a: 0.443 nM, b: 0.786 nM, c: 1.68 nM)

----------
- ASSAY_TARGET: purified recombinant human BTK protein (Homo sapiens (Human), UniProt Q06187)
- Sequence (Q06187 whole entry): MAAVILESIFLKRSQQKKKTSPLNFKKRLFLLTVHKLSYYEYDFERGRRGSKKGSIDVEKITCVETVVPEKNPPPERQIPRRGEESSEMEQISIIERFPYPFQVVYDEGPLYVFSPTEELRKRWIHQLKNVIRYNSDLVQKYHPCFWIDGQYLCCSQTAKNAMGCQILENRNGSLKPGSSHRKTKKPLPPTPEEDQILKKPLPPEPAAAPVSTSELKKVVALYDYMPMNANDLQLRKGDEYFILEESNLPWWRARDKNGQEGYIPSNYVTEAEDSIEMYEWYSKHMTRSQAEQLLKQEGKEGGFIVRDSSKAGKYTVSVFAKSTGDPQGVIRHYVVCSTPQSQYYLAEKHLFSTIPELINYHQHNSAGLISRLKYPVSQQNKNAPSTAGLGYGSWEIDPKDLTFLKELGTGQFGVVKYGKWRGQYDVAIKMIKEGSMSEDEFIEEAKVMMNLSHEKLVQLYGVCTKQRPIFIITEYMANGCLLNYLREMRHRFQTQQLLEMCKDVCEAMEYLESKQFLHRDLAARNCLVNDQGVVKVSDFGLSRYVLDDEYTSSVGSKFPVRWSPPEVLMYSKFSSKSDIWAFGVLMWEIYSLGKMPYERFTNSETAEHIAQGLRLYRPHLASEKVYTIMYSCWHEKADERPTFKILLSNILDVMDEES
- ASSAY_PROCEDURE: Measurement of BTK inhibitory activity (in vitro)
- ASSAY_SETUP: FL-PEPTIDE 2 substrate 1 μM, ATP 45 μM, 40 minutes at 25° C.
pIC50: −log10 of the molar value.
ENDPOINT_LABEL: pIC50

[[record]]
structure = "CC(C)=CC(=O)N1CC[C@@H](n2nc(C(=O)Nc3nc4cc(Cl)ccc4o3)c3c(N)ncnc32)C1"
endpoint_label = "pIC50"
numeric_readout = 8.55


P: CN(C)C/C=C/C(=O)N1CC[C@@H](n2nc(C(=O)Nc3nc4cc(C(F)(F)F)ccc4o3)c3c(N)ncnc32)C1
Q: C=CC(=O)N1CCC[C@@H](n2nc(C(=O)Nc3nc4cc(F)ccc4o3)c3c(N)ncnc32)C1
I'm curious, which of these has a smaller pIC50 number: P or Q ? Identify your selection by its label. P

----------
- Tested on: purified recombinant human EGFR protein / BTK
- ASSAY_PROCEDURE: BTK inhibition selectivity compared with EGFR kinase inhibitory activity (in vitro)
- Assay type: biochemical
- ASSAY_SETUP: EGFR assay ATP 1.5 μM
ENDPOINT_LABEL: EGFR inhibitory activity IC50 value (nM)/BTK inhibitory activity IC50 value (nM)

Take a look at these entries with their results.
[[record]]
compound = "C=CC(=O)N1CC(Cn2nc(C(=O)Nc3nc4cc(Cl)ccc4o3)c3c(N)ncnc32)C1 [Example 76]"
assay_target = "purified recombinant human EGFR protein / BTK"
numeric_readout = 11.4

[[record]]
compound = "C=CC(=O)N1CCC[C@@H](n2nc(C(=O)Nc3nc4ccccc4o3)c3c(N)ncnc32)C1 [Example 13]"
assay_target = "purified recombinant human EGFR protein / BTK"
numeric_readout = 28.8


1: CC(C)N(C)C/C=C/C(=O)N1CCC[C@@H](n2nc(C(=O)Nc3nc4cc(Cl)ccc4o3)c3c(N)ncnc32)C1 [Example 18]
2: CCN(CC)C/C=C/C(=O)N1CC[C@@H](n2cc(C(=O)Nc3nc4cc(Cl)ccc4o3)c3c(N)ncnc32)C1 [Example 51]
3: CC(C)N(C)C/C=C/C(=O)N1CC[C@@H](n2cc(C(=O)Nc3nc4cc(Cl)ccc4o3)c3c(N)ncnc32)C1 [Example 52]
4: CN(C)C/C=C/C(=O)N1CC[C@H](n2nc(C(=O)Nc3nc4ccccc4o3)c3c(N)ncnc32)C1 [Example 73]
5: C=C(C)C(=O)N1CCC[C@@H](n2nc(C(=O)Nc3nc4cc(Cl)ccc4o3)c3c(N)ncnc32)C1 [Example 4]
Sort these compounds on EGFR inhibitory activity IC50 value (nM)/BTK inhibitory activity IC50 value (nM) so the largest reading comes first. Please express your ranking as an ordered list of the labels. 5, 1, 2, 3, 4

----------
- Test system: purified recombinant human EGFR protein / BTK
- ASSAY_PROCEDURE: BTK inhibition selectivity compared with EGFR kinase inhibitory activity (in vitro)
- Assay type: biochemical
- ASSAY_SETUP: EGFR assay ATP 1.5 μM
ENDPOINT_LABEL: EGFR inhibitory activity IC50 value (nM)/BTK inhibitory activity IC50 value (nM)

[[record]]
compound = "CCN(C)C/C=C/C(=O)N1CCC[C@@H](n2nc(C(=O)Nc3nc4cc(Cl)ccc4o3)c3c(N)ncnc32)C1 [Example 16]"
numeric_readout = 158.1

[[record]]
compound = "Nc1ncnc2c1c(C(=O)Nc1nc3cc(Cl)ccc3o1)nn2[C@@H]1CCN(C(=O)/C=C/CN2CCCCC2)C1 [Example 37]"
numeric_readout = 70.5

[[record]]
compound = "C=CC(=O)N1CC[C@@H](n2nc(C(=O)Nc3nc4cc(CCOC)ccc4o3)c3c(N)ncnc32)C1 [Example 40]"
numeric_readout = 10.0

[[record]]
compound = "Nc1ncnc2c1c(C(=O)Nc1nc3cc(-c4ccccc4)ccc3o1)cn2[C@@H]1CCN(C(=O)/C=C/CN2CCCC2)C1 [Example 60]"
numeric_readout = 32.4

[[record]]
compound = "Nc1ncnc2c1c(C(=O)Nc1nc3cc(Cl)ccc3o1)nn2[C@@H]1CCN(C(=O)/C=C/CN2CCCC2)C1 [Example 36]"
numeric_readout = 59.8


P: C=CC(=O)N1CCC[C@@H](n2nc(C(=O)Nc3nc4cc(F)ccc4o3)c3c(N)ncnc32)C1 [Example 12]
Q: CC(C)=CC(=O)N1CC[C@@H](n2nc(C(=O)Nc3nc4cc(Cl)ccc4o3)c3c(N)ncnc32)C1 [Example 26]
Which one would you say has the larger EGFR inhibitory activity IC50 value (nM)/BTK inhibitory activity IC50 value (nM) value: P , or Q ? Give the label under which the chosen entry appears. Q
(Q: 642.8, P: 84.2)

----------
- ASSAY_TARGET: purified recombinant human BTK protein (Homo sapiens (Human), UniProt Q06187)
- ASSAY_PROCEDURE: Measurement of BTK inhibitory activity (in vitro)
- ASSAY_SETUP: FL-PEPTIDE 2 substrate 1 μM, ATP 45 μM, 40 minutes at 25° C.
ENDPOINT_LABEL: IC50 (nM)

[[record]]
compound = "C=C(C)C(=O)N1CCC[C@@H](n2nc(C(=O)Nc3nc4cc(Cl)ccc4o3)c3c(N)ncnc32)C1 [Example 4]"
assay_target = "purified recombinant human BTK protein (Homo sapiens (Human), UniProt Q06187)"
numeric_readout = 0.888

[[record]]
compound = "C=CC(=O)N1CCC(Cn2nc(C(=O)Nc3nc4ccccc4o3)c3c(N)ncnc32)CC1 [Example 68]"
assay_target = "purified recombinant human BTK protein (Homo sapiens (Human), UniProt Q06187)"
numeric_readout = 13.2

[[record]]
compound = "C=CC(=O)N1CCC(n2nc(C(=O)Nc3nc4ccccc4o3)c3c(N)ncnc32)CC1 [Example 69]"
assay_target = "purified recombinant human BTK protein (Homo sapiens (Human), UniProt Q06187)"
numeric_readout = 162

[[record]]
compound = "C/C=C/C(=O)N1CCC[C@@H](n2nc(C(=O)Nc3nc4cc(Cl)ccc4o3)c3c(N)ncnc32)C1 [Example 5]"
assay_target = "purified recombinant human BTK protein (Homo sapiens (Human), UniProt Q06187)"
numeric_readout = 1.25


----------
- ASSAY_TARGET: purified recombinant human BTK protein (Homo sapiens (Human), UniProt Q06187)
- ASSAY_PROCEDURE: Measurement of BTK inhibitory activity (in vitro)
- ASSAY_SETUP: FL-PEPTIDE 2 substrate 1 μM, ATP 45 μM, 40 minutes at 25° C.
ENDPOINT_LABEL: IC50 (nM)

# example entries with known answers
[[record]]
structure = "CCN(C)C/C=C/C(=O)N1CCC[C@@H](n2nc(C(=O)Nc3nc4cc(Cl)ccc4o3)c3c(N)ncnc32)C1"
assay_target = "purified recombinant human BTK protein (Homo sapiens (Human), UniProt Q06187)"
measure_unit = "nM"
numeric_readout = 0.733

[[record]]
structure = "C=CC(=O)N1CC(n2nc(C(=O)Nc3nc4ccccc4o3)c3c(N)ncnc32)C1"
assay_target = "purified recombinant human BTK protein (Homo sapiens (Human), UniProt Q06187)"
measure_unit = "nM"
numeric_readout = 21.4

[[record]]
structure = "C=CC(=O)N1CC[C@@H](n2cc(C(=O)Nc3nc4cc(Cl)ccc4o3)c3c(N)ncnc32)C1"
assay_target = "purified recombinant human BTK protein (Homo sapiens (Human), UniProt Q06187)"
measure_unit = "nM"
numeric_readout = 0.836

[[record]]
structure = "C=CC(=O)N1CCC[C@@H](n2nc(C(=O)Nc3nc4ccccc4o3)c3c(N)ncnc32)C1"
assay_target = "purified recombinant human BTK protein (Homo sapiens (Human), UniProt Q06187)"
measure_unit = "nM"
numeric_readout = 0.813

[[record]]
structure = "C=CC(=O)N[C@H]1CC[C@@H](n2nc(C(=O)Nc3nc4ccccc4o3)c3c(N)ncnc32)CC1"
assay_target = "purified recombinant human BTK protein (Homo sapiens (Human), UniProt Q06187)"
measure_unit = "nM"
numeric_readout = 5.89


I: C=CC(=O)N1CC[C@@H](n2cc(C(=O)Nc3nc4cc(-c5ccccc5)ccc4o3)c3c(N)ncnc32)C1
II: CC(C)N(C)C/C=C/C(=O)N1CC[C@@H](n2cc(C(=O)Nc3nc4cc(Cl)ccc4o3)c3c(N)ncnc32)C1
Quick one: lower IC50, I or II ? Kindly give the label for the entry you pick. I

I: Nc1ncnc2c1c(C(=O)Nc1nc3cc(Cl)ccc3o1)nn2[C@@H]1CCN(C(=O)/C=C/CN2CCCCC2)C1
II: CC(C)N(C)C/C=C/C(=O)N1CC[C@@H](n2cc(C(=O)Nc3nc4cc(-c5ccccc5)ccc4o3)c3c(N)ncnc32)C1
Response body: label of entry with the larger IC50; valid values I , II . Please reply using the label of the selected record. II

1: C=CC(=O)N1CC[C@@H](n2nc(C(=O)Nc3nc4cc(CCOC)ccc4o3)c3c(N)ncnc32)C1
2: CN(C)C/C=C/C(=O)N1CC[C@H](n2nc(C(=O)Nc3nc4ccccc4o3)c3c(N)ncnc32)C1
# min-compare on IC50 between 1 and 2 Reply briefly: the label of your chosen item. 1
(1: 2.09 nM, 2: 259 nM)
